Would you mind telling me the reported IC50 of each entry?
- tested.target: Calmodulin-domain protein kinase 1 (Toxoplasma gondii)
- Sequence (Q9BJF5 whole entry): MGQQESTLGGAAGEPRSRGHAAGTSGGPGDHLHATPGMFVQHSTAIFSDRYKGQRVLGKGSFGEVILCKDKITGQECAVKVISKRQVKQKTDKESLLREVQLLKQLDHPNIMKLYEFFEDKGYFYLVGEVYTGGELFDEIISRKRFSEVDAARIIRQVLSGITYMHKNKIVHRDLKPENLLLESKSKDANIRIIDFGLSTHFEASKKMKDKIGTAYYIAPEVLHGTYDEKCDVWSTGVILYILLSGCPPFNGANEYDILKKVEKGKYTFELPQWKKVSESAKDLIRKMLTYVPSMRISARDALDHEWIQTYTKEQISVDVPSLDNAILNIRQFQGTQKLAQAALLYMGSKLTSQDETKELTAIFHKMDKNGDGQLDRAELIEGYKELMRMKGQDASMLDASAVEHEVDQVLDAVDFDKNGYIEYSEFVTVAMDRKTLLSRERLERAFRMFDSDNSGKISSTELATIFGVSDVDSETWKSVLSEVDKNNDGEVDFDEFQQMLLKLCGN
- experiment.description: Inhibition Assay: Certain of the compounds prepared as described above were assayed to determine their IC50 for inhibition of T. gondii CDPK1 (tgCDPK1). At least three independent replicates of the assay were conducted for each compound tested.
Kindly provide the numeric value in nM only, without the unit symbol.

The reported IC50 of the compound Nc1ncnc2c1c(Cc1cccc(C(F)(F)F)c1)nn2[C@H]1C[C@H](O)C1 was 36

The reported IC50 of the compound Nc1ncnc2c1c(Cc1cccc(Cl)c1)nn2[C@H]1C[C@@H](F)C1 was 7.05

The reported IC50 of the compound N#Cc1cccc(Cc2nn([C@H]3C[C@H](F)C3)c3ncnc(N)c23)c1 was 45.9

The reported IC50 of the compound Nc1ncnc2c1c(Cc1cccc(F)c1)nn2[C@H]1C[C@H](F)C1 was 14.2

The reported IC50 of the compound Nc1ncnc2c1c(Cc1cccc(F)c1)nn2[C@H]1C[C@H](O)C1 was 28.3

The reported IC50 of the compound Nc1ncnc2c1c(Cc1cccc(F)c1)cn2[C@H]1C[C@H](O)C1 was 28.3

The reported IC50 of the compound Nc1ncnc2c1c(Cc1cccc(Cl)c1)nn2[C@H]1C[C@H](O)C1 was 8.87

The reported IC50 of the compound COc1ccnc(Oc2nn([C@H]3C[C@@H](O)C3)c3ncnc(N)c23)c1 was 37.1

The reported IC50 of the compound NC(=O)c1ccnc(Oc2nn([C@H]3C[C@H](F)C3)c3ncnc(N)c23)c1 was 69.7
